- experimental.setup: human
reported.metric: concentration in oral fluid (ng/mL)
State just the number; it will be interpreted in ng/mL.

Recorded concentration in oral fluid, per entry:
O=C1CN=C(c2ccccc2Cl)c2cc([N+](=O)[O-])ccc2N1 [clonazepam] : 0.34
CN(C)CCC=C1c2ccccc2C=Cc2ccccc21 [cyclobenzaprine] : 4.74
COc1ccc2c3c1O[C@H]1C(=O)CC[C@@]4(O)[C@@H](C2)N(C)CC[C@]314 [oxycodone] : 5.53

The compound listed as COc1ccc2c3c1O[C@H]1[C@@H](O)C=C[C@H]4[C@@H](C2)N(C)CC[C@@]341 [codeine] shows concentration in oral fluid equal to 4.63

----------
- protocol.notes: LC-MS/MS quantification of drugs in oral fluid of live and post-mortem dogs
- experimental.setup: Example 4, post-mortem dog, sublingual area
Measured detected and quantified in the sublingual region (oral fluid), listed per entry.
State just the number; it will be interpreted in ng/mL.

NCC1(CC(=O)O)CCCCC1 : 205.00

The molecule listed as COc1cccc(C2(O)CCCCC2CN(C)C)c1 (stereo not shown) shows detected and quantified in the sublingual region (oral fluid) equal to 49.70

The molecule listed as "CC(=O)Nc1ccc(O)cc1" shows detected and quantified in the sublingual region (oral fluid) equal to 12.20

The molecule listed as CNC1(c2ccccc2Cl)CCCCC1=O (stereo not shown) shows detected and quantified in the sublingual region (oral fluid) equal to 408.30
